The measured values listed here are drawn from paper PMC8780768.

molecular target: GABA-ρ2 receptors (Homo sapiens, UniProt P28476); construct: expressed in transfected cells; host or cells: Xenopus laevis oocytes injected with cRNA; assay: Two-electrode voltage-clamp, agonist dose–response at GABA-ρ2 receptors expressed in Xenopus oocytes; assay type: cell-based; settings: relative to GABA maximal response
Sequence (P28476 21-465): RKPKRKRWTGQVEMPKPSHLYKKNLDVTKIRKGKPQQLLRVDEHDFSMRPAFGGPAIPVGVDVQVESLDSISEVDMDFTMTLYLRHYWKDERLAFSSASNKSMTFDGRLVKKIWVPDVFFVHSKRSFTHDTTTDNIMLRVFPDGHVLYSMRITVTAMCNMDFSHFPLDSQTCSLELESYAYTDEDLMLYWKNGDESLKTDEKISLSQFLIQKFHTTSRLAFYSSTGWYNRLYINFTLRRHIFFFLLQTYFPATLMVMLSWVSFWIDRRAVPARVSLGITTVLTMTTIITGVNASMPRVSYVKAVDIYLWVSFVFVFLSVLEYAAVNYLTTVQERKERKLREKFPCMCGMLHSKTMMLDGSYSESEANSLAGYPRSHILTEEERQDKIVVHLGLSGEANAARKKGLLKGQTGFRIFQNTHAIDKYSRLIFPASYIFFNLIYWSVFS
Assign labels as follows, please: Condition met for GABA-ρ2 Efficacy below 70%; Condition not met for GABA-ρ2 Efficacy equal to or exceeding 70%.

mol-smiles | assigned-class
NCCCCC(=O)O | Condition met
NCCC(=O)O | Condition not met
O=C(O)Cc1c[nH]cn1 | Condition met
NC/C=C/C(=O)O | Condition not met
NC/C=C\C(=O)O | Condition met
O=C(O)C1=CCNCC1 | Condition met

Now take the following molecule into account.
Determine whether this molecule shows GABA-ρ2 Efficacy lower than 70% (ties excluded): NCc1cc(=O)[nH]o1
Condition met

* * *

target: GABA-ρ1 receptors (Homo sapiens, UniProt P24046); construct: expressed in transfected cells; host or cells: Xenopus laevis oocytes injected with cRNA; test: Two-electrode voltage-clamp, agonist dose–response at GABA-ρ1 receptors expressed in Xenopus oocytes; assay type: cell-based
Sequence (P24046 22-479): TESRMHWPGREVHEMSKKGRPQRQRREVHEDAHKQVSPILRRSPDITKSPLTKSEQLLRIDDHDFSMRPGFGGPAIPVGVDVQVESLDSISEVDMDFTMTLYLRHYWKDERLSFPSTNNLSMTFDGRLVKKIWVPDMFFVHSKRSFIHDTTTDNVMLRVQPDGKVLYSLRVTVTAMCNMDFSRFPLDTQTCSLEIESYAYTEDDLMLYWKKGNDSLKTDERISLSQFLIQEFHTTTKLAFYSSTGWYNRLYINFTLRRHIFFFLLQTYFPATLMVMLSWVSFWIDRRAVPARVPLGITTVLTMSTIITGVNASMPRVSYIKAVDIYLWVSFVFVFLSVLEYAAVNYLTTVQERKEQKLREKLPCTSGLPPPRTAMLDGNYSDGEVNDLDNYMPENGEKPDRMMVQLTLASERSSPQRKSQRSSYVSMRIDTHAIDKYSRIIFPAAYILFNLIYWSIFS
Entries annotated with measured pEC50
Scale explanation: pEC50 corresponds to minus log10 of a concentration expressed in moles per litre.

Name the recorded pEC50 for NCc1cc(=O)[nH]o1 [Muscimol, muscimol] .
5.90

Name the recorded pEC50 for NCCC(=O)O [β-Alanine, β-alanine] .
3.40

Name the recorded pEC50 for O=C(O)Cc1c[nH]cn1 [Imidazole-4-acetic acid, imidazole-4-acetic acid] .
4.18

* * *

Entries annotated with measured IC50
target: GABA-ρ1 receptors (Homo sapiens); experiment: Two-electrode voltage-clamp, co-application of ligand with GABA EC50 at GABA-ρ1 receptors (additive/inhibition)
Give the value, in units of µM, as a plain number.

mol-smiles | measured-property | reported-measurement
NCCCCC(=O)O | IC50 | 35

Name the recorded IC50 for O=C(O)Cc1c[nH]cn1 .
0.8

* * *

Entries annotated with measured pEC50
Target: GABA-ρ1 receptors (Homo sapiens)
Construct: expressed in transfected cells; host or cells: Xenopus laevis oocytes injected with cRNA
Assay: Two-electrode voltage-clamp, agonist dose–response at GABA-ρ1 receptors expressed in Xenopus oocytes
Assay type: cell-based
Settings: TEVC, Xenopus oocytes, −60 mV; read-out: GABA-ρ1 EC50
Text: Ovary lobes were dissected from female Xenopus laevis (South Africa clawed frogs), which were removed as reported previously, in accordance with the National Health and Medical Research Council (NHMRC) of Australia’s ethical guidelines. This procedure is also approved by the University of Sydney’s animal ethics committee (2013/5915). […]
Scale explanation: pEC50 corresponds to minus log10 of a concentration expressed in moles per litre.

mol-smiles | reported-measurement
NCCCCC(=O)O | 3.22
O=C(O)C1=CCNCC1 | 3.69
NC/C=C/C(=O)O | 6.22

Please turn your attention to the following entry.
Name the recorded pEC50 for NC/C=C\C(=O)O .
4.03

* * *

target: GABA-ρ1 receptors (Homo sapiens); construct: expressed in transfected cells; host or cells: Xenopus laevis oocytes injected with cRNA; assay: Two-electrode voltage-clamp, agonist dose–response at GABA-ρ1 receptors expressed in Xenopus oocytes; assay type: cell-based; conditions: relative to GABA maximal response
Entries annotated with measured GABA-ρ1 Efficacy
Give the value, in units of %, as a plain number.

molecule | GABA-ρ1 Efficacy / %
NCCC(=O)O [β-Alanine, β-alanine] | 30
NCC(=O)O [Glycine, glycine] | 25
NCCCCC(=O)O [5-Aminovaleric acid, 5-amino valeric acid] | 3
O=C(O)C1=CCNCC1 [Isoguvacine, isoguvacine] | 40
O=C(O)Cc1c[nH]cn1 [Imidazole-4-acetic acid, imidazole-4-acetic acid] | 10

Name the recorded GABA-ρ1 Efficacy for NCc1cc(=O)[nH]o1 [Muscimol, muscimol] .
80
